TEST SUMMARY: Effective concentration in vitro against HIV-1-infected CEM cells relative to uninfected untreated controls
CONDITION: ccrf-cem
MEASURED QUANTITY: EC50 (nM)
Respond numerically; units are nM and should not be typed.

Given the molecule "Cc1cn([C@H]2C[C@H](N=[N+]=[N-])[C@@H](CO)O2)c(=O)[nH]c1=O" , what is its reported EC50?
3

* * *

Entries and their AZT formation
Organism: Mus musculus
TEST SUMMARY: In vitro percent of 3''-azido-3''-deoxythymidine (AZT) formed upon incubation with mouse blood for 10 min at 37 degree C
Type: functional
Respond numerically; units are % and should not be typed.

A selection of reference data follows.
CO[C@@H]1N(C2CC(N=[N+]=[N-])C(CO)O2)C(=O)NC(=O)[C@@]1(C)Cl (some centres not stated) ... 0
CO[C@H]1N(C2CC(N=[N+]=[N-])C(CO)O2)C(=O)NC(=O)[C@]1(C)Cl (some centres not stated) ... 0
CO[C@@H]1N(C2CC(N=[N+]=[N-])C(CO)O2)C(=O)NC(=O)[C@@]1(C)Br (some centres not stated) ... 88

Given the molecule CO[C@@H]1N(C2CC(N=[N+]=[N-])C(CO)O2)C(=O)NC(=O)[C@@]1(C)I (some centres not stated) , what is its reported AZT formation?
100

Given the molecule CO[C@H]1N(C2CC(N=[N+]=[N-])C(CO)O2)C(=O)NC(=O)[C@@]1(C)Cl (some centres not stated) , what is its reported AZT formation?
0

Given the molecule CO[C@H]1N(C2CC(N=[N+]=[N-])C(CO)O2)C(=O)NC(=O)[C@]1(C)I (some centres not stated) , what is its reported AZT formation?
100

Given the molecule CO[C@H]1N(C2CC(N=[N+]=[N-])C(CO)O2)C(=O)NC(=O)[C@]1(C)Br (some centres not stated) , what is its reported AZT formation?
59

* * *

MEASURED ON: Human immunodeficiency virus 1 (Human immunodeficiency virus 1, UniProt Q72547)
TEST SUMMARY: Effective concentration (in vitro anti-HIV activity ) which produces a 50% survival of HIV-1-infected CEM cells relative to uninfected untreated controls; Inactive
Assay type: functional, cell-based
CONDITION: ccrf-cem
MEASURED QUANTITY: EC50

CCCCCCCCCCCCCCCCO[C@H]1N(C2CC(N=[N+]=[N-])C(CO)O2)C(=O)NC(=O)[C@]1(C)Br (stereo partly drawn) ... Not Active
CCCCCCCCCCCCCCCCO[C@H]1N(C2CC(N=[N+]=[N-])C(CO)O2)C(=O)NC(=O)[C@]1(C)Cl (stereo partly drawn) ... Not Active
CCO[C@H]1N(C2CC(N=[N+]=[N-])C(CO)O2)C(=O)NC(=O)[C@@]1(C)Cl (stereo partly drawn) ... Not Active

* * *

Organism: Mus musculus
TEST SUMMARY: In vitro percent of 3''-azido-3''-deoxythymidine (AZT) formed upon incubation with mouse liver homogenate for 30 min at 37 degree C
Type: functional
# if measured AZT formation < 30%: 1  # else: -1

Here are 3 compounds together with their reported answers.
CO[C@@H]1N(C2CC(N=[N+]=[N-])C(CO)O2)C(=O)NC(=O)[C@@]1(C)Br (some centres not stated) ... -1
CO[C@@H]1N(C2CC(N=[N+]=[N-])C(CO)O2)C(=O)NC(=O)[C@@]1(C)I (some centres not stated) ... -1
CO[C@H]1N(C2CC(N=[N+]=[N-])C(CO)O2)C(=O)NC(=O)[C@@]1(C)Cl (some centres not stated) ... 1

A record lists CO[C@@H]1N(C2CC(N=[N+]=[N-])C(CO)O2)C(=O)NC(=O)[C@@]1(C)Cl (some centres not stated) . Is its AZT formation below 30%?
1

A record lists CO[C@H]1N(C2CC(N=[N+]=[N-])C(CO)O2)C(=O)NC(=O)[C@]1(C)I (some centres not stated) . Is its AZT formation below 30%?
-1

A record lists CO[C@H]1N(C2CC(N=[N+]=[N-])C(CO)O2)C(=O)NC(=O)[C@]1(C)Cl (some centres not stated) . Is its AZT formation below 30%?
1

A record lists CO[C@H]1N(C2CC(N=[N+]=[N-])C(CO)O2)C(=O)NC(=O)[C@]1(C)Br (some centres not stated) . Is its AZT formation below 30%?
1

* * *

Tested on: CCRF-CEM
TEST SUMMARY: Inhibitory concentration (cytotoxic activity) which results in a 50% survival of […]; ND=Not determined
Type: functional, cell-based
CONDITION: Homo sapiens
MEASURED QUANTITY: pIC50
Please treat pIC50 as minus the base-10 logarithm of the molar concentration.

Given the compound CCCCCCCCO[C@H]1N(C2CC(N=[N+]=[N-])C(CO)O2)C(=O)NC(=O)[C@]1(C)Cl (some centres not stated) , what is its reported pIC50?
4.43

* * *

TEST SUMMARY: Therapeutic index of IC50 to EC50
CONDITION: read-out: TI
# binning rule on selectivity ratio: low-valued (below 200), mid-valued (200 to below 1000), high-valued (1000 or more)

Here are 10 compounds together with their reported answers.
CO[C@@H]1N(C2CC(N=[N+]=[N-])C(CO)O2)C(=O)NC(=O)[C@@]1(C)I (some centres not stated) ... high-valued
CO[C@@H]1N(C2CC(N=[N+]=[N-])C(CO)O2)C(=O)NC(=O)[C@@]1(C)Br (some centres not stated) ... low-valued
CC(C)O[C@H]1N(C2CC(N=[N+]=[N-])C(CO)O2)C(=O)NC(=O)[C@]1(C)Br (some centres not stated) ... low-valued
CCO[C@H]1N(C2CC(N=[N+]=[N-])C(CO)O2)C(=O)NC(=O)[C@]1(C)Br (some centres not stated) ... high-valued
CCO[C@@H]1N(C2CC(N=[N+]=[N-])C(CO)O2)C(=O)NC(=O)[C@@]1(C)Br (some centres not stated) ... mid-valued
CCCCCCCCO[C@H]1N(C2CC(N=[N+]=[N-])C(CO)O2)C(=O)NC(=O)[C@]1(C)Br (some centres not stated) ... low-valued
CC1(Br)C(=O)NC(=O)N([C@H]2C[C@H](N=[N+]=[N-])[C@@H](CO)O2)C1N=[N+]=[N-] (some centres not stated) ... low-valued
Cc1cn([C@H]2C[C@H](N=[N+]=[N-])[C@@H](CO)O2)c(=O)[nH]c1=O [ZIDOVUDINE] ... high-valued
CO[C@H]1N(C2CC(N=[N+]=[N-])C(CO)O2)C(=O)NC(=O)[C@]1(C)Br (some centres not stated) ... high-valued
CO[C@H]1N(C2CC(N=[N+]=[N-])C(CO)O2)C(=O)NC(=O)[C@]1(C)I (some centres not stated) ... high-valued

Classify this compound: CC1(Cl)C(=O)NC(=O)N([C@H]2C[C@H](N=[N+]=[N-])[C@@H](CO)O2)C1N=[N+]=[N-] (some centres not stated)
mid-valued

Classify this compound: CO[C@H]1N([C@H]2C[C@H](N=[N+]=[N-])[C@@H](CO)O2)C(=O)NC(=O)C1(C)Cl (some centres not stated)
low-valued

Numbers sourced from ChEMBL document CHEMBL1127432.
